Molecular target: FGFR1 (Homo sapiens, UniProt P11362)
Construct: made in house; host or cells: E. coli derived from BL21, infected with T7 phage
Sequence (P11362 22-822): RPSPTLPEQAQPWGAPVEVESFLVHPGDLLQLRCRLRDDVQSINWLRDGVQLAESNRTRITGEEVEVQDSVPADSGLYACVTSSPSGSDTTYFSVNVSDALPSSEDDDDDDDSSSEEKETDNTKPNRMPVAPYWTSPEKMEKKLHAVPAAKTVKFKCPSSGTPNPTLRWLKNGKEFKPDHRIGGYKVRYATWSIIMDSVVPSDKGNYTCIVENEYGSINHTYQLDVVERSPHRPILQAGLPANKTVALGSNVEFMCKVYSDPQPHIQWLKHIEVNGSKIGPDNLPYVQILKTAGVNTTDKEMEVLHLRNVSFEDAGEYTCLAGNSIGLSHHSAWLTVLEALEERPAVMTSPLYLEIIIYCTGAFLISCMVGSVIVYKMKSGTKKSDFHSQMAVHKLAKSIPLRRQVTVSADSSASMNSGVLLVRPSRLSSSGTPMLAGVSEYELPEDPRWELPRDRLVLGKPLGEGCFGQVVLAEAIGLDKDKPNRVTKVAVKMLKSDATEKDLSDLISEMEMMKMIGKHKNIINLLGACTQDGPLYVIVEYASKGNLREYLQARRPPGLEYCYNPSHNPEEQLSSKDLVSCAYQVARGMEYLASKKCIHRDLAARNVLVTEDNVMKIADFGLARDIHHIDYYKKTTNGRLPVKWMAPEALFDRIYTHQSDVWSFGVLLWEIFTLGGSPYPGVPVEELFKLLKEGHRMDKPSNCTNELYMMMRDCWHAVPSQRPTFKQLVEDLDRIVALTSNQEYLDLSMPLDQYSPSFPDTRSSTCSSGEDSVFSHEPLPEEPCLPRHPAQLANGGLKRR
Assay: Kinase binding assay (kinase-tagged T7 phage, qPCR), Kd
Conditions: read-out: FGFR1 (Kd nM)
ENDPOINT LABEL: Kd

COc1cc(-c2n[nH]c3cc(OC)c(O[C@H](C)c4c(C)cnnc4C)cc23)cc(C#N)n1
100 to 250 nM
Cc1cnnc(C)c1[C@H](C)Oc1ccc2[nH]nc(-c3cc(C#N)cc(N4CCN(C)CC4)c3)c2c1
> 1000 nM
Cc1cc(-c2n[nH]c3ccc(O[C@H](C)c4c(Cl)cncc4Cl)cc23)cnc1N[C@@H]1CCOC1
0.1 to 100 nM

Record summary for Cc1cnnc(C)c1[C@@H](C)Oc1ccc2[nH]nc(-c3cnc(O[C@H]4CCOC4)c(C#N)c3)c2c1 : reported Kd = 100 to 250 nM

====

Catalogue of Kd values
Target: FGFR2 (Homo sapiens)
Construct: made in house; host or cells: E. coli derived from BL21, infected with T7 phage
Assay: Kinase binding assay (kinase-tagged T7 phage, qPCR), Kd
Details: read-out: FGFR2 (Kd nM)

So for C[C@@H](Oc1ccc2[nH]nc(-c3ccc(S(C)(=O)=O)nc3)c2c1)c1c(Cl)cncc1Cl , the logged Kd turned out to be 0.1 to 100 nM

Item: C[C@@H](Oc1ccc2[nH]nc(-c3cnc4c(c3)N(C(=O)CN(C)C)CCO4)c2c1)c1c(Cl)cncc1Cl | Kd: > 1000 nM

For Cc1cnnc(C)c1[C@@H](C)Oc1ccc2[nH]nc(-c3cnc(N(C)C)c(C#N)c3)c2c1 the compound record lists Kd as 100 to 250 nM

Data point: Cc1ncc(Cl)c([C@@H](C)Oc2ccc3[nH]nc(-c4ccc5c(c4)COC4(CCN(S(C)(=O)=O)CC4)O5)c3c2)c1Cl ; Kd = 0.1 to 100 nM

For record C[C@@H](Oc1ccc2[nH]nc(-c3ccc(OC4CC5(C4)CN(S(C)(=O)=O)C5)nc3)c2c1)c1c(Cl)cncc1Cl the listed Kd is 0.1 to 100 nM

For this compound ( Cc1cnnc(C)c1[C@@H](C)Oc1ccc2[nH]nc(-c3cc(C#N)cc(C4CCCC4)c3)c2c1 ), measured Kd is > 1000 nM

response.value for COc1cc(OC)cc(-c2n[nH]c3ccc(O[C@H](C)c4c(C)cnnc4C)cc23)c1 (field: Kd) = 250 to 1000 nM

Form: compound = CCN1CCC2(CC1)OCc1cc(-c3n[nH]c4ccc(O[C@H](C)c5c(C)cnnc5C)cc34)ccc1O2 ; Kd = 0.1 to 100 nM

Given item C[C@@H](Oc1ccc2[nH]nc(-c3cnc4c(c3)N(CCO)CCO4)c2c1)c1c(Cl)cncc1Cl , the value recorded as its Kd is > 1000 nM

Note to self: Kd recorded for Cc1cnnc(C)c1[C@@H](C)Oc1ccc2[nH]nc(-c3cc(C#N)cc(OC4CCOC4)c3)c2c1 (stereo partly shown) was 250 to 1000 nM

Looking up Cc1cnnc(C)c1[C@@H](C)Oc1ccc2[nH]nc(-c3cc(C#N)cc(C4CC4)c3)c2c1 , I found its Kd recorded as 250 to 1000 nM

Kd reading for CCS(=O)(=O)N1CCOc2ncc(-c3n[nH]c4ccc(O[C@H](C)c5c(Cl)cncc5Cl)cc34)cc21 : > 1000 nM

Kd recorded for this compound, COc1cc(N)cc(-c2n[nH]c3ccc(O[C@H](C)c4c(Cl)cncc4Cl)cc23)c1 , is > 1000 nM

Measured Kd, C[C@@H](Oc1ccc2[nH]nc(-c3cnc(N)c(C#N)c3)c2c1)c1c(Cl)cncc1Cl : > 1000 nM

COc1ncc(-c2n[nH]c3ccc(O[C@H](C)c4c(Cl)cncc4Cl)cc23)cc1C#N yielded Kd of 250 to 1000 nM

Query COc1cc(-c2n[nH]c3ccc(O[C@H](C)c4c(Cl)cncc4Cl)cc23)cc(C#N)c1OC1CCNCC1 yields Kd of > 1000 nM

Kd reported for this compound C[C@@H](Oc1ccc2[nH]nc(-c3cnc(N[C@H]4CCOC4)c(C#N)c3)c2c1)c1c(Cl)cncc1Cl : 0.1 to 100 nM

====

Biological target: FGFR1 (Homo sapiens)
Construct: made in house; host or cells: E. coli derived from BL21, infected with T7 phage
Test: Kinase binding assay (kinase-tagged T7 phage, qPCR), Kd
Settings: read-out: FGFR1 (Kd nM)
Kd listing for selected molecules.

Examples from the recorded data:
C[C@@H](Oc1ccc2[nH]nc(-c3cnc4c(c3)N(CCN(C)C)CCO4)c2c1)c1c(Cl)cncc1Cl
> 1000 nM
Cc1cnnc(C)c1[C@@H](C)Oc1ccc2[nH]nc(-c3cc(C#N)cc(OC4CCOCC4)c3)c2c1
250 to 1000 nM
C[C@@H](Oc1ccc2[nH]nc(-c3cnc4c(c3)OCC(=O)N4)c2c1)c1c(Cl)cncc1Cl
0.1 to 100 nM
Cc1cnnc(C)c1[C@@H](C)Oc1ccc2[nH]nc(-c3cc(C#N)cc(C4CCCC4)c3)c2c1
> 1000 nM
C[C@@H](Oc1ccc2[nH]nc(-c3ccc(NC(=O)CN(C)C)nc3)c2c1)c1c(Cl)cncc1Cl
0.1 to 100 nM

CC(C)N1CCC(Oc2ccc(-c3n[nH]c4ccc(O[C@H](C)c5c(Cl)cncc5Cl)cc34)cc2C#N)CC1 yielded Kd of 0.1 to 100 nM

Kd reported for this molecule C[C@@H](Oc1ccc2[nH]nc(-c3cnc4c(c3)N(S(C)(=O)=O)CCO4)c2c1)c1c(Cl)cncc1Cl : 250 to 1000 nM

Kd for C[C@@H](Oc1ccc2[nH]nc(-c3ccc(S(C)(=O)=O)nc3)c2c1)c1c(Cl)cncc1Cl is 0.1 to 100 nM

The molecule identified as C[C@@H](Oc1ccc2[nH]nc(-c3cnc4c(c3)N(C(=O)c3ccccn3)CCO4)c2c1)c1c(Cl)cncc1Cl registered its Kd at 100 to 250 nM

====

Measured Kd of individual entries
Molecular target: FGFR2 (Homo sapiens, UniProt P21802)
Construct: made in house; host or cells: E. coli derived from BL21, infected with T7 phage
Sequence (P21802 22-821): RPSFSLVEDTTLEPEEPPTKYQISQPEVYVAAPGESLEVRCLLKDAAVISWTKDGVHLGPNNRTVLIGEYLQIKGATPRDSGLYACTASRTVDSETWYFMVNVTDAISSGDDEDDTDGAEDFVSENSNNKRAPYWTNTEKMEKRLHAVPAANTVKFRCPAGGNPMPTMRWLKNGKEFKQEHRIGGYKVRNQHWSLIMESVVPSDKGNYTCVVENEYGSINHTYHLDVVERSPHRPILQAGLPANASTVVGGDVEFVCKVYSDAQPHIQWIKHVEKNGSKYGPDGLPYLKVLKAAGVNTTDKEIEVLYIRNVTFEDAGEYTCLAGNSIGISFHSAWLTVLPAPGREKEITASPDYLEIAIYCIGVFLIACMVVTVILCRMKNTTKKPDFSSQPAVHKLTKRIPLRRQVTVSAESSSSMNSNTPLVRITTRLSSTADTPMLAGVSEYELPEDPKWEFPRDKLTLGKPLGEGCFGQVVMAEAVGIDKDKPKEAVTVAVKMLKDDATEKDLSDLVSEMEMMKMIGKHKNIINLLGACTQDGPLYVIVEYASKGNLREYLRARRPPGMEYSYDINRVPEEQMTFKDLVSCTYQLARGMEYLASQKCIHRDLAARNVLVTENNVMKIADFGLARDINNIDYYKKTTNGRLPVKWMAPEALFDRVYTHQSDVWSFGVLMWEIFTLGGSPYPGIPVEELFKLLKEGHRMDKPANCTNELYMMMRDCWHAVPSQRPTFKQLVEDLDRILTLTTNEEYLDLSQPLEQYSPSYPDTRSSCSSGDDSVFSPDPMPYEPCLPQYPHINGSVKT
Assay: Kinase binding assay (kinase-tagged T7 phage, qPCR), Kd
Details: read-out: FGFR2 (Kd nM)

Some entries whose results are on file:
C[C@@H](Oc1ccc2[nH]nc(-c3cnc4c(c3)N(CCN(C)C)CCO4)c2c1)c1c(Cl)cncc1Cl
> 1000 nM
C[C@@H](Oc1ccc2[nH]nc(-c3cnc4c(c3)N(CCN3CCOCC3)CCO4)c2c1)c1c(Cl)cncc1Cl
> 1000 nM
C[C@@H](Oc1ccc2[nH]nc(-c3cnc(NC(=O)CN(C)C)c(F)c3)c2c1)c1c(Cl)cncc1Cl
0.1 to 100 nM
COc1cc(NCc2ccccn2)cc(-c2n[nH]c3ccc(O[C@H](C)c4c(Cl)cncc4Cl)cc23)c1
> 1000 nM
C[C@@H](Oc1ccc2[nH]nc(-c3ccc4c(c3)COC3(CCN(CC(F)F)CC3)O4)c2c1)c1c(Cl)cncc1Cl
0.1 to 100 nM
CC(C)N1CCOc2ncc(-c3n[nH]c4ccc(O[C@H](C)c5c(Cl)cncc5Cl)cc34)cc21
> 1000 nM

The reported value for CCN1CCC2(CC1)CC(=O)c1cc(-c3n[nH]c4ccc(O[C@H](C)c5c(Cl)cncc5Cl)cc34)ccc1O2 in terms of Kd is 0.1 to 100 nM

Value of measured Kd for the entry COc1cc(C#N)cc(-c2n[nH]c3cc(OC)c(O[C@H](C)c4c(C)cnnc4C)cc23)c1 : 0.1 to 100 nM

Kd recorded for this compound, COc1c(C)cc(-c2n[nH]c3ccc(O[C@H](C)c4c(Cl)cncc4Cl)cc23)cc1C#N , is 250 to 1000 nM

====

Target: FGFR1 (Homo sapiens)
Construct: made in house; host or cells: E. coli derived from BL21, infected with T7 phage
Assay: Kinase binding assay (kinase-tagged T7 phage, qPCR), Kd
Settings: read-out: FGFR1 (Kd nM)
molecules and their reported Kd

# example entries with known answers
COc1cc(NCc2ccccn2)cc(-c2n[nH]c3ccc(O[C@H](C)c4c(Cl)cncc4Cl)cc23)c1
> 1000 nM
COc1ncc(-c2n[nH]c3ccc(O[C@H](C)c4c(Cl)cncc4Cl)cc23)cc1C#N
250 to 1000 nM

Query molecule follows.
Item: COc1cc(C#N)cc(-c2n[nH]c3ccc(O[C@H](C)c4c(C)cnnc4C)cc23)c1 | Kd: 250 to 1000 nM

====

Biological target: FGFR3-BAIAP2L1 Ba/F3 (Homo sapiens, UniProt P22607)
Construct: host or cells: Ba/F3; the other entry of the earlier key: BAIAP2L1 (Q9UHR4, BAR/IMD domain-containing adapter protein 2-like 1)
Sequence (P22607 397-758 limits assumed): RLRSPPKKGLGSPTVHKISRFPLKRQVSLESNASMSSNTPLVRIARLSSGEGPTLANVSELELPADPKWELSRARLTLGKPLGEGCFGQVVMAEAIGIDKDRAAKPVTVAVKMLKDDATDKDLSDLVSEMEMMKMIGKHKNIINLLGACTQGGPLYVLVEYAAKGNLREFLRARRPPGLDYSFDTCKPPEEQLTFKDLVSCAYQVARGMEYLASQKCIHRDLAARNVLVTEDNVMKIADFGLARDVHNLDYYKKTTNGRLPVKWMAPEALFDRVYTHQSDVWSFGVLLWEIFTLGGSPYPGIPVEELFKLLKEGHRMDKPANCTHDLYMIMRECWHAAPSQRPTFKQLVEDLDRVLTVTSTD
Experiment: Ba/F3 cell viability assay (CellTiter-Glo 2.0)
Type: cell-based
Settings: Ba/F3 FGFR3-BAIAP2L1 cells, 48 hours
ENDPOINT LABEL: IC50

Known results for compounds:
C[C@@H](Oc1ccc2[nH]nc(-c3ccc4c(c3)COC3(CCN(CC(F)(F)F)CC3)O4)c2c1)c1c(Cl)cncc1Cl [Example 169]
0.1 to 100 nM
Cc1cc(-c2n[nH]c3ccc(O[C@H](C)c4c(Cl)cnc(C)c4Cl)cc23)cnc1O[C@@H]1CCOC1 [Example 148]
100 to 250 nM
Cc1cnnc(C)c1[C@@H](C)Oc1ccc2[nH]nc(-c3ccc4c(c3)COC3(CCN(C(C)C)CC3)O4)c2c1 [Example 112]
0.1 to 100 nM
CCN1CCC2(CC1)OCc1cc(-c3n[nH]c4ccc(O[C@H](C)c5c(Cl)cncc5Cl)cc34)ccc1O2 [Example 96]
0.1 to 100 nM
C[C@@H](Oc1ccc2[nH]nc(-c3ccc(OC4CC5(C4)CN(S(C)(=O)=O)C5)nc3)c2c1)c1c(Cl)cncc1Cl [Example 152]
0.1 to 100 nM
Cc1ncc(Cl)c([C@@H](C)Oc2ccc3[nH]nc(-c4ccc(O[C@@H]5CCOC5)nc4)c3c2)c1Cl [Example 147]
100 to 250 nM

Next up:
Record Cc1cc(-c2n[nH]c3ccc(O[C@H](C)c4c(Cl)cncc4Cl)cc23)cnc1N[C@@H]1CCOC1 [Example 158] has FGFR3-BAIAP2L1 Ba/F3 (Homo sapiens, UniProt P22607) IC50 equal to 0.1 to 100 nM
